Recorded IC50 by entry
# target.of.assay: CDK7/Cyclin H/MNAT1 (Homo sapiens, UniProt P50613)
# Sequence (P50613 whole entry): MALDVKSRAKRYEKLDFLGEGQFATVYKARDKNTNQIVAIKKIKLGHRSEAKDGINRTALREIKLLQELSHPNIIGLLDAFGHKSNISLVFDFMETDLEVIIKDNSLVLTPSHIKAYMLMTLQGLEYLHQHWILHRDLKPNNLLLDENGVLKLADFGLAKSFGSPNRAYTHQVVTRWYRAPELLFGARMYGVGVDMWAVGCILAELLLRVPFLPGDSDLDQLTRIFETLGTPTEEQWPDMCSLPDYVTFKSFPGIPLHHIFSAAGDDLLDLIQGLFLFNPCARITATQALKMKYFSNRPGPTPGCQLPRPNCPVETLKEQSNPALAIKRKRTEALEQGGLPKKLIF
# Sequence (P51946 whole entry partner): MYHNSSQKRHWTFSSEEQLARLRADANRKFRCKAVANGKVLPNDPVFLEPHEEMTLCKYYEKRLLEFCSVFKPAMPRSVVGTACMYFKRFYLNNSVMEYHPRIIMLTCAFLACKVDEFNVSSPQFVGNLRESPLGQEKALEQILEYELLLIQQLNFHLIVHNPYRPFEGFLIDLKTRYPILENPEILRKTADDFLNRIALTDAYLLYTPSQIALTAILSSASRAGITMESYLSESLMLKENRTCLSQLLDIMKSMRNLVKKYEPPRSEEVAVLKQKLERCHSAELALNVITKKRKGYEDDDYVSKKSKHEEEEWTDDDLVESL
# Sequence (P51948 whole entry partner): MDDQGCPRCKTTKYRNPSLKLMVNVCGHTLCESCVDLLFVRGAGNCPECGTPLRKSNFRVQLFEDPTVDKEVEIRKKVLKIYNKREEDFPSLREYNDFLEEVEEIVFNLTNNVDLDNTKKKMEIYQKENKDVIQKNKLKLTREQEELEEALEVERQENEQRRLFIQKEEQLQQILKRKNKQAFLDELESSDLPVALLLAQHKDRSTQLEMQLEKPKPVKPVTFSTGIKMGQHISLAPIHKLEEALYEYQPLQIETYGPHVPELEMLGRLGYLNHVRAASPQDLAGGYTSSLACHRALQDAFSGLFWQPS
# assay.name: Enzymatic assay for CDK7 (LANCE Ultra kinase assay, FRET based)
# measurement.conditions: ATP at Km

{"compound": "C=C(F)C(=O)Nc1ccc2c(-c3ccccc3CNc3nc(N[C@@H]4CCCN(C)C4)nc4c(C(C)C)cnn34)nccc2c1 [Compound 173]", "IC50": "< 100 nM"}
{"compound": "CC(C)c1cnn2c(NCc3cccc(Oc4cccc(NC(=O)/C=C/CN(C)C)c4)c3)nc(N3CCC(N)CC3)nc12 [Compound 2]", "IC50": "< 100 nM"}
{"compound": "C=CC(=O)Nc1ccc2c(-c3ccccc3CNc3nc(NC4CCC(C)(C)NC4)nc4c(C(F)(F)F)cnn34)nccc2c1 (stereo not shown) [Compound 215]", "IC50": "< 100 nM"}
{"compound": "CC(C)c1cnn2c(NCc3ccccc3-c3nccc4cc(NC(=O)/C=C/CN(C)C)ccc34)nc(N3CCCC4(CC3)OCCO4)nc12 [Compound 115]", "IC50": "100 to 1000 nM"}
{"compound": "CC(C)c1cnn2c(NCc3ccccc3-c3nccc4cc(NC(=O)/C=C/CN(C)C)ccc34)nc(N3CCNCC3)nc12 [Compound 59]", "IC50": "< 100 nM"}
{"compound": "C=C(F)C(=O)Nc1ccc2c(-c3ccccc3CNc3nc(N4CO[C@H]5CN(C)CC[C@@H]5C4)nc4c(C(C)C)cnn34)nccc2c1 [Compound 165]", "IC50": "100 to 1000 nM"}
{"compound": "CC(C)c1cnn2c(NCc3ccccc3-c3ccc4cccc(NC(=O)/C=C/CN(C)C)c4n3)nc(N3CCC(N)CC3)nc12 [Compound 20]", "IC50": "< 100 nM"}

###

# target.of.assay: 28 CDKs family protein kinases (Homo sapiens, UniProt Q00534)
# Construct: purchased ProQinase GmbH; host or cells: Sf9 insect cells or E. coli
# Sequence (Q00534 whole entry): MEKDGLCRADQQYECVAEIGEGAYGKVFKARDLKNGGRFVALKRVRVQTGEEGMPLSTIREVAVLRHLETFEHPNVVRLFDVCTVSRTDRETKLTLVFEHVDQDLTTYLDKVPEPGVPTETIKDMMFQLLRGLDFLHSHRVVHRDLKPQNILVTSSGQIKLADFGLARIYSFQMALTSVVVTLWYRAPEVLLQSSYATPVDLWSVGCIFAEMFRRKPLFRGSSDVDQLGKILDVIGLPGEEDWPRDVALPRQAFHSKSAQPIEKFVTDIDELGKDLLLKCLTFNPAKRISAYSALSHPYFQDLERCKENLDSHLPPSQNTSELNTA
# Sequence (P24385 whole entry partner): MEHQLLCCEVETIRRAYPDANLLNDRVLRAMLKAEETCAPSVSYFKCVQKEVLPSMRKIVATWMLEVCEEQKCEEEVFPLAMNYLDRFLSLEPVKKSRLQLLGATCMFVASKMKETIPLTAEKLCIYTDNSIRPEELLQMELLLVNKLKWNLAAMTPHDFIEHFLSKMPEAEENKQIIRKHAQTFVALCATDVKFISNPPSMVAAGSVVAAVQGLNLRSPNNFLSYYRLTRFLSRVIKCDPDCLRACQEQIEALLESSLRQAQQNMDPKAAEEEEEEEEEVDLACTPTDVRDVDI
# assay.name: In vitro IC50 profile for CDKs family kinase (33PanQinase Activity Assay, ProQinase)
# Type: biochemical
# measurement.conditions: CDK6/CycD1; read-out: CDK7 selectivity profile in CDKs family, IC50
reported.property: IC50

{"compound": "CC(C)c1cnn2c(NCc3ccccc3-c3nccc4cc(NC(=O)/C=C/CN(C)C)ccc34)nc(N3CCC(N)CC3)nc12 [Compound 11]", "result": "> 10 µM"}

###

# target.of.assay: CDK1/Cyclin B (Homo sapiens)
# Construct: purchased Invitrogen PR4768C
# Sequence (P06493 whole entry): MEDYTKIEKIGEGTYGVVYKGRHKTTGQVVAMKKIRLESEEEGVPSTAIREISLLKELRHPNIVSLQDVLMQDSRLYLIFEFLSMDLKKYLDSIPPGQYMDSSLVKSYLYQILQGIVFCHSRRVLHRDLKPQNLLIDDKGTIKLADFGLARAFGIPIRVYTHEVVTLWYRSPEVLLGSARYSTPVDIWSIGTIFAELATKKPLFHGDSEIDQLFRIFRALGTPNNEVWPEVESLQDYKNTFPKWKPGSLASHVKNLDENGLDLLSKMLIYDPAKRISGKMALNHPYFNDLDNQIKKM
# Sequence (P14635 whole entry partner): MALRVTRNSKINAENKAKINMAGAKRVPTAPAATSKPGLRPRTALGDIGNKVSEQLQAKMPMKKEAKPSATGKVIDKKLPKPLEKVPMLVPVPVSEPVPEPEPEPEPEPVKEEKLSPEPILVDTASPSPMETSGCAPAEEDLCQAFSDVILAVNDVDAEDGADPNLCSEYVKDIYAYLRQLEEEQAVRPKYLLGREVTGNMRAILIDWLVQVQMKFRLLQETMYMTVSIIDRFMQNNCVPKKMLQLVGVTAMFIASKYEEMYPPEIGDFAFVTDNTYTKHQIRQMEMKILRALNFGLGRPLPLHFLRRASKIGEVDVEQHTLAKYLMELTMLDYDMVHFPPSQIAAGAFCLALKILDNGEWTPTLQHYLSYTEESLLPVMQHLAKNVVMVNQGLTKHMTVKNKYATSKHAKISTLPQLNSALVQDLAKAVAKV
# assay.name: Enzymatic assay for CDK1 (LANCE Ultra kinase assay, FRET based)
# Assay type: biochemical
# measurement.conditions: ATP at Km; read-out: CDK1 enzymatic activity IC50
reported.property: IC50

{"compound.structure.string": "C=CC(=O)Nc1ccc2c(-c3ccccc3CNc3nc(N4CCS(=O)(=O)CC4)nc4c(C(C)C)cnn34)nccc2c1", "reported.property": "IC50", "result": "> 1000 nM"}
{"compound.structure.string": "CC(C)c1cnn2c(NCc3ccccc3-n3cc4cc(NC(=O)/C=C/CN(C)C)ccc4n3)nc(N3CCC(N)CC3)nc12", "reported.property": "IC50", "result": "100 to 1000 nM"}
{"compound.structure.string": "C=C(F)C(=O)Nc1ccc2c(-c3ccccc3CNc3nc(N[C@H]4CC[C@@H](OC)C4)nc4c(C(C)C)cnn34)nccc2c1", "reported.property": "IC50", "result": "> 1000 nM"}
{"compound.structure.string": "C=C(Cl)C(=O)Nc1ccc2c(-c3ccccc3CNc3nc(N[C@H]4CC[C@H](OC)CC4)nc4c(C(C)C)cnn34)nccc2c1", "reported.property": "IC50", "result": "> 1000 nM"}
{"compound.structure.string": "CC(C)c1cnn2c(NCc3ccccc3-c3nccc4cc(NC(=O)/C=C/CN(C)C)ccc34)nc(NC[C@H]3CCNC[C@@H]3O)nc12", "reported.property": "IC50", "result": "> 1000 nM"}
{"compound.structure.string": "CC(C)c1cnn2c(NCc3cccc(Oc4ccc(Cl)c(NC(=O)/C=C/CN(C)C)c4)c3)nc(N3CCC(N)CC3)nc12", "reported.property": "IC50", "result": "> 1000 nM"}

###

# target.of.assay: 28 CDKs family protein kinases (Homo sapiens, UniProt Q00535)
# Sequence (Q00535 whole entry): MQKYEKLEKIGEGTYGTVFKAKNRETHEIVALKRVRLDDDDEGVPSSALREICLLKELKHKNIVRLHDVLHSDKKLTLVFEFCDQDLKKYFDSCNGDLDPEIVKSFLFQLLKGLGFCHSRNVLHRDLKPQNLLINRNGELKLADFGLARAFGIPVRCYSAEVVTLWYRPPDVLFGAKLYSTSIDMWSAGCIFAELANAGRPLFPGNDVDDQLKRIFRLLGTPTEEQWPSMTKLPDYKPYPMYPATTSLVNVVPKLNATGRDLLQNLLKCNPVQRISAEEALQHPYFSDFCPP
# Sequence (Q15078 whole entry partner): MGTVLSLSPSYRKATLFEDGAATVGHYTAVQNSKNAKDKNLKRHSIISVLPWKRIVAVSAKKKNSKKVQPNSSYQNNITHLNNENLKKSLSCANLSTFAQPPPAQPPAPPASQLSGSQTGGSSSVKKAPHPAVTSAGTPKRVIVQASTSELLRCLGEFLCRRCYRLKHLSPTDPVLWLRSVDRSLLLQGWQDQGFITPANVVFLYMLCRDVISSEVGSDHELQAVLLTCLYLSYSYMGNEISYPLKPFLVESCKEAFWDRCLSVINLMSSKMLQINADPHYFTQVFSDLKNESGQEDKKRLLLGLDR
# assay.name: In vitro IC50 profile for CDKs family kinase (33PanQinase Activity Assay, ProQinase)
# Format: biochemical
# Design: purchased ProQinase GmbH; host or cells: Sf9 insect cells or E. coli
# measurement.conditions: CDK5/p35NCK; read-out: CDK7 selectivity profile in CDKs family, IC50
# Method: The IC50 profile of compound 11 was determined using 28 CDKs family protein kinases through ProQinase GmbH (Freiburg, Germany). All the protocol and materials had been provided by ProQinase GmbH. […] Kinases from external vendors, Carna Biosciences Inc.; Invitrogen Corp.; and Millipore Corp., were expressed, purified and quality-controlled by virtue of the vendors readings. […] Incorporation of ^33Pi was determined with a microplate scintillation counter (Microbeta, Wallac). […]
pIC50: −log10 of the molar value.

{"compound.structure.string": "CC(C)c1cnn2c(NCc3ccccc3-c3nccc4cc(NC(=O)/C=C/CN(C)C)ccc34)nc(N3CCC(N)CC3)nc12", "pIC50": 5.10}

###

# target.of.assay: CDK2/Cyclin A (Homo sapiens, UniProt P24941)
# assay.name: Enzymatic assay for CDK2 (LANCE Ultra kinase assay, FRET based)
# measurement.conditions: ATP at Km
reported.property: IC50

{"compound": "C/C=C/C(=O)Nc1ccc2c(-c3ccccc3CNc3cc(NC[C@H]4CCNC[C@@H]4O)nc4c(C(C)C)cnn34)nccc2c1", "reported.property": "IC50", "result": "> 1000 nM"}
{"compound": "CC(C)c1cnn2c(NCc3ccccc3-c3nccc4cc(NC(=O)/C=C/CN(C)C)ccc34)nc(N[C@@H]3CCCNC3)nc12", "reported.property": "IC50", "result": "> 1000 nM"}
{"compound": "C/C=C/C(=O)Nc1cccc2cc(-c3cccc(C)c3CNc3nc(NC[C@H]4CCNC[C@@H]4O)nc4c(C(C)C)cnn34)[nH]c12", "reported.property": "IC50", "result": "> 1000 nM"}
{"compound": "CC(C)c1cnn2c(NCc3ccccc3-c3nccc4cc(NC(=O)/C=C/CN(C)C)ccc34)nc(N[C@@H]3CC[C@@H](C)NC3)nc12", "reported.property": "IC50", "result": "> 1000 nM"}
{"compound": "CC(C)c1cnn2c(NCc3ccccc3-c3cc4cc(NC(=O)/C=C/CN(C)C)ccc4[nH]3)nc(N3CCC(N)CC3)nc12", "reported.property": "IC50", "result": "< 100 nM"}
{"compound": "C=C(F)C(=O)Nc1ccc2c(-c3ccccc3CNc3nc(NC4CCC(C)(C)NC4)nc4c(C(C)C)cnn34)nccc2c1 (stereo not drawn)", "reported.property": "IC50", "result": "> 1000 nM"}

###

# target.of.assay: CDK7/Cyclin H/MNAT1 (Homo sapiens, UniProt P50613)
# assay.name: Enzymatic assay for CDK7 (LANCE Ultra kinase assay, FRET based)
# measurement.conditions: ATP at Km
pIC50: −log10 of the molar value.
Recorded pIC50 by entry
reported.property: pIC50

{"compound": "CC(C)c1cnn2c(NCc3ccccc3-c3nccc4cc(NC(=O)/C=C/CN5CCOCC5)ccc34)nc(NC3CCC(C)(C)NC3)nc12 (centres unmarked) [Compound 180]", "reported.property": "pIC50", "result": "> 7.00"}
{"compound": "C=C(Br)C(=O)Nc1ccc2c(-c3ccccc3CNc3nc(NC[C@H]4CCNC[C@@H]4O)nc4c(C(C)C)cnn34)nccc2c1 [Compound 205]", "reported.property": "pIC50", "result": "> 7.00"}
{"compound": "CC(C)c1cnn2c(NCc3ccccc3-c3nccc4cc(NC(=O)/C=C/CN(C)C)ccc34)nc(N[C@@H]3CC[C@@H](C)NC3)nc12 [Compound 154]", "reported.property": "pIC50", "result": "> 7.00"}
{"compound": "COC1CCC(Nc2nc(NCc3ccccc3-c3nccc4cc(NC(=O)/C=C/CN(C)C)ccc34)n3ncc(C(C)C)c3n2)CC1 (centres unmarked) [Compound 44]", "reported.property": "pIC50", "result": "> 7.00"}
{"compound": "CC(C)c1cnn2c(NCc3ccccc3-c3nccc4cc(NC(=O)/C=C/CN(C)C)ccc34)nc(N3CCC(NC(=O)OC(C)(C)C)CC3)nc12 [Compound 75]", "reported.property": "pIC50", "result": "6.00 to 7.00"}
{"compound": "C=CC(=O)N1CCc2c(ccnc2-c2ccccc2CNc2nc(OC3CCC(C)(C)NC3)nc3c(C(C)C)cnn23)C1 (centres unmarked) [Compound 203]", "reported.property": "pIC50", "result": "> 7.00"}
{"compound": "CC(C)c1cnn2c(NCc3ccccc3-n3cc4cccc(NC(=O)/C=C/CN(C)C)c4n3)nc(N3CCC(N)CC3)nc12 [Compound 16]", "reported.property": "pIC50", "result": "> 7.00"}
{"compound": "C=CC(=O)Nc1ccc2c(-c3ccccc3CNc3cc(C)nc4c(C(C)C)cnn34)nccc2c1 [Compound 195]", "reported.property": "pIC50", "result": "> 7.00"}
{"compound": "CC(C)c1cnn2c(NCc3ccccc3-c3nccc4cc(NC(=O)/C=C/CN(C)C)ccc34)nc(N[C@@H]3CCCNC3)nc12 [Compound 150]", "reported.property": "pIC50", "result": "> 7.00"}
{"compound": "CC(C)c1cnn2c(NCc3ccccc3-c3nccc4cc(NC(=O)/C=C/CN(C)C)ccc34)nc(NCC3CCN(C)CC3)nc12 [Compound 133]", "reported.property": "pIC50", "result": "> 7.00"}
{"compound": "CC(C)c1cnn2c(NCc3ccccc3-c3nccc4cc(NC(=O)/C=C/CN(C)C)ccc34)nc(NCCCO)nc12 [Compound 28]", "reported.property": "pIC50", "result": "6.00 to 7.00"}
{"compound": "C=CC(=O)Nc1ccc2c(-c3ccccc3CNc3nc(N4C5CCC4CC(O)C5)nc4c(C(C)C)cnn34)nccc2c1 (centres unmarked) [Compound 114]", "reported.property": "pIC50", "result": "> 7.00"}
{"compound": "C=C(F)C(=O)Nc1ccc2c(-c3ccccc3CNc3nc(NC4CCC(C)(C)NC4)nc4c(C(C)C)cnn34)nccc2c1 (centres unmarked) [Compound 175]", "reported.property": "pIC50", "result": "> 7.00"}
{"compound": "C=CC(=O)Nc1ccc2c(-c3ccccc3CNc3cc(N4C5CCC4CC(OC)C5)nc4c(C(C)C)cnn34)nccc2c1 (centres unmarked) [Compound 119]", "reported.property": "pIC50", "result": "6.00 to 7.00"}
{"compound": "C=CC(=O)Nc1ccc2c(-c3cccc(C(F)(F)F)c3CNc3nc(Nc4cccnc4)nc4c(C(C)C)cnn34)nccc2c1 [Compound 213]", "reported.property": "pIC50", "result": "< 6.00"}
{"compound": "C=C(F)C(=O)Nc1ccc2c(-c3ccccc3CNc3nc(N[C@H]4CCC(C)(C)NC4)nc4c(C(C)C)cnn34)nccc2c1 [Compound 171]", "reported.property": "pIC50", "result": "> 7.00"}
{"compound": "CC(C)c1cnn2c(NCc3ccccc3-c3nccc4cc(NC(=O)/C=C/CN(C)C)ccc34)nc(N3CCOC4(CCN(C)CC4)C3)nc12 [Compound 120]", "reported.property": "pIC50", "result": "> 7.00"}
{"compound": "CC(C)c1cnn2c(NCc3ccccc3-c3nccc4cc(NC(=O)/C=C/CN(C)C)ccc34)cc(N3CCNC(C(F)(F)F)C3)nc12 (centres unmarked) [Compound 214]", "reported.property": "pIC50", "result": "> 7.00"}
{"compound": "C=C(F)C(=O)Nc1ccc2c(-c3ccccc3CNc3nc(NC[C@@H]4CCNC[C@H]4O)nc4c(C(C)C)cnn34)nccc2c1 [Compound 157]", "reported.property": "pIC50", "result": "> 7.00"}
{"compound": "C=C(F)C(=O)Nc1ccc2c(-c3ccccc3CNc3nc(N4CCC(OC)CC4)nc4c(C(C)C)cnn34)nccc2c1 [Compound 88]", "reported.property": "pIC50", "result": "6.00 to 7.00"}
{"compound": "C=C(F)C(=O)Nc1ccc2c(-c3ccccc3CNc3nc(N[C@@H]4CCC(C)(C)NC4)nc4c(C(C)C)cnn34)nccc2c1 [Compound 174]", "reported.property": "pIC50", "result": "> 7.00"}
{"compound": "C/C=C/C(=O)Nc1ccc2c(-c3ccccc3CNc3nc(NC[C@H]4CNC[C@@H]4O)nc4c(C(C)C)cnn34)nccc2c1 [Compound 77]", "reported.property": "pIC50", "result": "> 7.00"}
{"compound": "Cc1nc(NCc2ccccc2-c2nccc3cc(NC(=O)/C=C/CN(C)C)ccc23)n2ncc(C(C)C)c2n1 [Compound 167]", "reported.property": "pIC50", "result": "6.00 to 7.00"}
{"compound": "CC(C)c1cnn2c(NCc3ccccc3-c3nccc4cc(NC(=O)/C=C/CN(C)C)ccc34)cc(NC3CCC(F)(F)CC3)nc12 [Compound 185]", "reported.property": "pIC50", "result": "> 7.00"}
{"compound": "CC(C)=CC(=O)Nc1ccc2c(-c3ccccc3CNc3nc(N4CCC(N)CC4)nc4c(C(C)C)cnn34)nccc2c1 [Compound 40]", "reported.property": "pIC50", "result": "> 7.00"}
{"compound": "CC#CC(=O)Nc1ccc2c(-c3ccccc3CNc3nc(N[C@H]4CC[C@H](OC)CC4)nc4c(C(C)C)cnn34)nccc2c1 [Compound 135]", "reported.property": "pIC50", "result": "6.00 to 7.00"}
